System: MCF7
PROTOCOL_TEXT: Cytotoxicity against human MCF7 cells after 48 hrs by sulforhodamine B assay
Format: functional, cell-based
EXPERIMENTAL_CONDITIONS: mcf7
READOUT_LABEL: pIC50
Give bare numbers, as −log10 of the molar value.

INPUT: Requested field: pIC50. Item: C/C1=C\C(=O)OC[C@]23CCC(C(=O)O)=C[C@H]2O[C@@H]2CC(OC(=O)/C=C\C=C\[C@H]([C@H](C)O)OCC1)[C@@]3(C)[C@]21CO1 (stereo partly specified)
OUTPUT: 6.77

====

Test system: U2OS
PROTOCOL_TEXT: Cytotoxicity against human U2OS cells by MTT assay
Type: functional, cell-based
READOUT_LABEL: pIC50
One number for each entry, as −log10 of the molar value.

INPUT: Requested field: pIC50. Item: Cc1cc(O)c(C(=O)c2cc(O)cc(O)c2C=O)c(O)c1
OUTPUT: 4.94

====

Test system: Vero
PROTOCOL_TEXT: Cytotoxicity against African green monkey Vero cells
Assay type: cell-based
EXPERIMENTAL_CONDITIONS: Chlorocebus sabaeus
READOUT_LABEL: pIC50
Numbers only, as −log10 of the molar value.

INPUT: Requested field: pIC50. Item: C[C@H]1C/C=C/[C@H]2[C@@H]3O[C@]3(C)[C@@H](C)[C@H]3[C@H](Cc4ccc(O)cc4)NC(=O)[C@]32OC(=O)O/C=C/[C@@](C)(O)C1=O
OUTPUT: 5.92

====

System: NCI-H446
PROTOCOL_TEXT: Cytotoxicity against human NCI-H446 cells by MTS assay
Type: functional, cell-based
pIC50: −log10 of the molar value.
READOUT_LABEL: pIC50

For orientation, consider the following solved cases.
INPUT: Request - read-out pIC50 | tested on NCI-H446 | compound O=C1CC[C@@H](c2ccc(O)c3c2[C@@H](O)CCC3=O)c2cccc(O)c21
OUTPUT: 4.70 to 6.00

INPUT: Check CO[C@H]1CCC(=O)c2c([C@@H]3CCC(=O)c4c(O)cccc43)ccc(O)c21 too.
OUTPUT: 4.70 to 6.00

Return reported pIC50 values for all items listed beneath this line.
1. O=C1CC[C@@H](c2ccc(O)c3c2C(=O)CCC3=O)c2cccc(O)c21
2. CO[C@@H]1CCC(=O)c2c([C@@H]3CCC(=O)c4c(O)cccc43)ccc(O)c21
3. Cc1cc2c(c3c1C(=O)Oc1c(C)c4c(c(O)c1O3)C(=O)OC4)CO2
4. O=C1CC[C@@H](c2ccc(O)c3c2C(=O)CC[C@H]3O)c2cccc(O)c21

OUTPUT:
1. 4.70 to 6.00
2. 4.70 to 6.00
3. 4.20
4. 4.70 to 6.00

====

Tested on: L02
PROTOCOL_TEXT: Cytotoxicity against human L02 cells by MTS assay
Assay type: cell-based
READOUT_LABEL: pIC50
Give bare numbers, as −log10 of the molar value.

INPUT: Requested field: pIC50. Item: COc1cc2c(c3c1OC(C)(C)CC3=O)C[C@@H](C)OC2=O
OUTPUT: 5.42

Further cases:
INPUT: Requested field: pIC50. Item: COC(=O)[C@]1(Cc2cc(CC=C(C)C)c(O)c(OC)c2)OC(=O)C(O)=C1c1ccc(O)cc1
OUTPUT: 5.38

====

Tested on: SMMC-7721
PROTOCOL_TEXT: Cytotoxicity against human SMMC7721 cells after 48 hrs by MTT assay
Assay type: functional, cell-based
EXPERIMENTAL_CONDITIONS: Homo sapiens, SMMC-7721, 48 h; read-out: IC50
READOUT_LABEL: IC50

INPUT: Requested field: IC50. Item: COC(=O)C1=C[C@@H](C)C[C@H]2CC[C@@H](O)[C@@]12O
OUTPUT: 3.6 to 16.2 µM

====

Tested on: MKN-45
PROTOCOL_TEXT: Cytotoxicity against human MKN45 cells after 24 hrs by MTT assay
Assay type: functional, cell-based
EXPERIMENTAL_CONDITIONS: MKN-45, 24 h
Kindly supply the reported IC50 values for the records listed here.

INPUT: Requested field: IC50. Item: CCCC[C@H](O)C(=O)C/C(=C\C(=O)O)OC
OUTPUT: < 200 µM

Now look at this entry.
INPUT: Requested field: IC50. Item: CC[C@@H](O)[C@H](O)[C@@H]1C[C@](O)(OC)CC(=O)O1
OUTPUT: < 200 µM

====

System: HepG2
PROTOCOL_TEXT: Cytotoxicity against human HepG2 cells after 48 hrs by sulforhodamine B assay
Type: functional, cell-based
EXPERIMENTAL_CONDITIONS: Homo sapiens, HepG2, 48 h
Kindly supply the reported IC50 values for the records listed here.

INPUT: Request - read-out IC50 | tested on HepG2 | compound CC[C@H](C)c1[nH]c2c(c1C)C(=O)C1=C(C2=O)[C@@H](O)[C@@H]2[C@@]3(C)CC[C@H](C(C)(C)O)O[C@@H]3CC[C@@]2(C)O1
OUTPUT: 6.4 to 42.6 µM

Return reported IC50 values for all items listed beneath this line.
1. Cc1cc(O)c(C(=O)c2c(C(=O)O)cc(O)c(O)c2O)c(O)c1
2. CC[C@H](C)C(=O)[C@@H](C)c1c(O)c2c(c3c1SCC(=O)N3)[C@@H](O)[C@@H]1[C@@]3(C)CC[C@H](C(C)(C)O)O[C@@H]3CC[C@@]1(C)O2
3. CCC/C=C/[C@H]1C=CC(=O)[C@H](O)[C@H]1C(=O)C(C)O (stereo partly specified)

OUTPUT:
["60 µM", "6.4 to 42.6 µM", "46.8 µM"]

Return reported IC50 values for all items listed beneath this line.
1. CC[C@H](C)C(=O)[C@@H](C)C1=CC(=O)C2=C(O[C@]3(C)CC[C@H]4O[C@@H](C(C)(C)O)CC[C@]4(C)C3=C2)C1=O
2. C/C=C(\C)C(=O)[C@@H](C)c1cc(O)c2c(c1O)O[C@]1(C)CC[C@H]3O[C@@H](C(C)(C)O)CC[C@]3(C)[C@H]1C2=O

OUTPUT:
1. 6.4 to 42.6 µM
2. 6.4 to 42.6 µM

====

Tested on: NB-4
PROTOCOL_TEXT: Cytotoxicity against human NB4 cells after 48 hrs by MTT assay
Assay type: functional, cell-based
EXPERIMENTAL_CONDITIONS: NB-4, 48 h
READOUT_LABEL: IC50

For orientation, consider the following solved cases.
INPUT: Requested field: IC50. Item: COC(=O)CCCN1C(=O)[C@@]23O[C@@]4(O)[C@@]5(O)[C@@H]2[C@@H](Cc2cccc1c23)C(C)(C)N5C(=O)[C@]4(O)[C@@H](C)O
OUTPUT: < 10 µM

INPUT: Check CC(=O)Cc1cc2c(CCCO)cc(O)cc2c(=O)o1 too.
OUTPUT: 2.8 to 8.8 µM

INPUT: Check COc1ccc(CCCO)c2cc(CC(C)=O)oc(=O)c12 too.
OUTPUT: 2.8 to 8.8 µM

INPUT: Check CN1C(=O)[C@]23O[C@]4(O)[C@@H](O)C(=O)N5C(C)(C)[C@H](Cc6cccc1c62)[C@H]3[C@@]54O too.
OUTPUT: 1.2 to 4.2 µM

INPUT: Check CC(C)=CCc1cc2c3c(c1)N(C)C(=O)[C@]31O[C@]3(O)[C@@H](O)C(=O)N4C(C)(C)[C@H](C2)[C@H]1[C@@]43O too.
OUTPUT: 1.2 to 4.2 µM

Return reported IC50 values for all items listed beneath this line.
1. C/C(=C\Cc1c(O)ccc2c1C=C(CO)OC2)CO
2. COC(=O)CCCN1C(=O)[C@]23O[C@]4(O)[C@@H](O)C(=O)N5C(C)(C)[C@H](Cc6cccc1c62)[C@H]3[C@@]54O
3. COc1ccc2c(c1C/C=C(\C)CO)C=C(CO)OC2
4. C[C@@H](O)[C@@]1(O)C(=O)N2C(C)(C)[C@@H]3Cc4cccc5c4[C@@]4(O[C@@]1(O)[C@@]2(O)[C@H]34)C(=O)N5C

OUTPUT:
1: 2.8 to 8.8 µM; 2: < 10 µM; 3: 2.8 to 8.8 µM; 4: 1.2 to 4.2 µM

====

Test system: HepG2
PROTOCOL_TEXT: Cytotoxicity against human HepG2 cells by MTT assay
Format: functional, cell-based
Classify by IC50. Ranges: LOW: < 5 µM; MID: ≥ 5 µM and < 9 µM; HIGH: ≥ 9 µM

INPUT: Looking at COc1ccc2c(c1)N(CC=C(C)C)C(=O)[C@@]21C=C2C(=O)N3CCC[C@H]3C(=O)N2[C@H]1C=C(C)C , which class would you pick?
OUTPUT: HIGH

INPUT: Check CC(C)CCC[C@@H](C)[C@H]1CC[C@H]2[C@@H]3CC[C@H]4C[C@@H](O[C@@H]5O[C@H](CO)[C@@H](O)[C@H](O)[C@H]5O)CC[C@]4(C)[C@H]3CC[C@]12C too.
OUTPUT: MID

INPUT: Check COC(=O)[C@]1(Cc2cc(CC=C(C)C)c(O)c(OC)c2)OC(=O)C(O)=C1c1ccc(O)cc1 too.
OUTPUT: LOW

Hello, the source for this data is ChEMBL document CHEMBL4411258, in case you need it.
